assay: Pharmacokinetics of levorphanol or levorphanol PABA carbamate, monkeys (Example 45); format: in vivo; settings: male, cynomolgus monkey, plasma, po, 5 mg levorphanol free base equivalents/kg, levorphanol in plasma after oral levorphanol, 5 mg free base equivalent/kg, single animal, read-out: AUC
Value Type: AUC
Units required after the number.

Qu. Look up AUC: CN1CC[C@]23CCCC[C@H]2[C@H]1Cc1ccc(O)cc13
Ans. 22 ng·h/mL

----------
experiment: in vivo; settings: male, rat, plasma, po, 10 mg naloxone free base equivalents/kg, AUC, naloxone in plasma after oral naloxone, 10 mg free base equivalents/kg, male rats; Mean
Value Type: AUC (ng·h/mL)
Write the number in ng·h/mL without appending the unit.

Qu. Look up AUC: C=CCN1CC[C@]23c4c5ccc(O)c4O[C@H]2C(=O)CC[C@@]3(O)[C@H]1C5
Ans. 22

----------
assay: Pharmacokinetics of meptazinol or meptazinol PABA carbamate, monkeys (Example 29); type: in vivo, monkey; details: monkey, plasma, po, 10 mg meptazinol free base equivalents/kg, meptazinol in plasma, oral meptazinol 10 mg free base equivalents/kg, mean, read-out: Cmax
Value Type: Cmax (ng/mL)
Write the number in ng/mL without appending the unit.

Qu. Look up Cmax: CCC1(c2cccc(O)c2)CCCCN(C)C1 (stereo not shown)
Ans. 21.1

----------
assay: Pharmacokinetics of nalbuphine or nalbuphine PABA carbamate, rats (Example 42); format: in vivo, Wistar rats; conditions: male, Wistar, rat, plasma, po, 3 mg nalbuphine free base equivalents/kg, nalbuphine PABA carbamate in plasma after oral p-aminobenzoic acid carbamate prodrug, 3 mg nalbuphine equivs/kg, single animal, read-out: Tmax
Value Type: Tmax
Units required after the number.

Qu. Look up Tmax: O=C(Nc1ccc(C(=O)O)cc1)Oc1ccc2c3c1O[C@H]1[C@@H](O)CC[C@@]4(O)[C@@H](C2)N(CC2CCC2)CC[C@]314 [nalbuphine PABA carbamate]
Ans. 15 min

----------
experiment: Pharmacokinetics of butorphanol or butorphanol PABA carbamate, monkeys (Example 43); format: in vivo, cynomolgus monkeys; details: male, cynomolgus monkey, plasma, 1 mg butorphanol free base equivalents/kg, butorphanol, oral butorphanol 1.0 mg free base/kg, Average, value after giving prodrug and used for estimating maximal systemic exposure, read-out: t½ (converted)
Value Type: half-life (h)
Write the number in h without appending the unit.

Qu. Look up half-life: Oc1ccc2c(c1)[C@@]13CCCC[C@@]1(O)[C@@H](C2)N(CC1CCC1)CC3
Ans. 6.1

----------
test: Pharmacokinetics of butorphanol or butorphanol PABA carbamate, dogs (Example 44); format: in vivo, beagle dogs; conditions: male, beagle, dog, plasma, po, 0.5 mg/kg, butorphanol in plasma after oral butorphanol, 0.5 mg butorphanol free base/kg, Average, read-out: Tmax
Value Type: Tmax (min)
Write the number in min without appending the unit.

Qu. Look up Tmax: Oc1ccc2c(c1)[C@@]13CCCC[C@@]1(O)[C@@H](C2)N(CC1CCC1)CC3
Ans. 45

----------
test: Pharmacokinetics of butorphanol or butorphanol PABA carbamate, dogs (Example 44); assay type: in vivo, beagle dogs; conditions: male, beagle, dog, plasma, po, 0.5 mg/kg, butorphanol in plasma after oral butorphanol, 0.5 mg butorphanol free base/kg, single animal, read-out: t½ (converted)
Value Type: half-life (h)
Write the number in h without appending the unit.

Qu. Look up half-life: Oc1ccc2c(c1)[C@@]13CCCC[C@@]1(O)[C@@H](C2)N(CC1CCC1)CC3
Ans. 1.6
